FYI, the data here is from patent US8106055B2.

inhibition at 10 µM listing for selected compounds.
Target or test system: bradykinin 1 receptor (B1R) of the rat (Rattus norvegicus)
Construct: expressed in transfected cells; host or cells: CHO K1 cells
Sequence (P97583 whole entry): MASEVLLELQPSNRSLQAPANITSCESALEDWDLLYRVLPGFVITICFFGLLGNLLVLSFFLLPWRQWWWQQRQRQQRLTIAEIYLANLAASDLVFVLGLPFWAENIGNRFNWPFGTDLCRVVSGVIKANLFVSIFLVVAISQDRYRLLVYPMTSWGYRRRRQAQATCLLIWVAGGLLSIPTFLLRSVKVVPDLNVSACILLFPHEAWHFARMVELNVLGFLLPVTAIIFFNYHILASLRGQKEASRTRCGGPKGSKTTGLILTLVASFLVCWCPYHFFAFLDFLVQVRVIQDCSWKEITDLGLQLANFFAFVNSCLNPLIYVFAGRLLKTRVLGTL
Assay notes: Functional investigation on the rat bradykinin 1 receptor (B1R), Ca2+ FLIPR assay in CHO K1 rB1R cells
Type: cell-based
Experimental parameters: CHO-K1, B1R antagonism rat; test substance 10 μM; Ca2+ FLIPR, CHO K1 rB1R cells; read-out: B1R Ant. r [10 μM] % Inhibition
Write the value in % as a bare number.

Example results:
- Compound: "Cc1ccc(S(=O)(=O)N(C)CCOCC(=O)NCC2CCC(C(c3ccccc3)N(C)C)CC2)cc1 (stereo not shown)"
  Units text: "%"
  Reported measurement: -1
- Compound: "COc1cc(C)c(S(=O)(=O)N2CCC(OCC(=O)NCCC3CCC(C(c4cccs4)N(C)C)CC3)C2)c(C)c1C (stereo not shown)"
  Units text: "%"
  Reported measurement: 27
- Compound: "CN(C)C(c1cccs1)C1CCC(CNC(=O)COCCN(C)S(=O)(=O)c2cccc(C(F)(F)F)c2)CC1 (stereo not shown)"
  Units text: "%"
  Reported measurement: 1
- Compound: "COc1cc(C)c(S(=O)(=O)N2CCCC(OCC(=O)NC3CCC(C(c4cccs4)N(C)C)CC3)C2)c(C)c1C (stereo not shown)"
  Units text: "%"
  Reported measurement: 4
- Compound: "O=C(COCC1CCCCN1S(=O)(=O)c1c(Cl)cc(Cl)cc1Cl)NC1CCC(C(c2ccccc2)N2CCOCC2)CC1 (stereo not shown)"
  Units text: "%"
  Reported measurement: 89
- Compound: "O=C(COC1CCN(S(=O)(=O)c2c(Cl)cc(Cl)cc2Cl)C1)NCC1CCC(C(CCc2ccccc2)N2CCOCC2)CC1 (stereo not shown)"
  Units text: "%"
  Reported measurement: 44

Let us examine a further case.
Record CN(C)C(c1cccs1)C1CCC(NC(=O)COC2CCN(S(=O)(=O)c3ccccc3)C2)CC1 (stereo not shown) , field inhibition at 10 µM: 14

====

Target or test system: human μ opiate receptor (Homo sapiens, UniProt P35372)
Construct: purchased PerkinElmer Life Sciences, Zaventem, Belgium RB-HOM; host or cells: CHO-K1 cells (membrane preparation)
Sequence (P35372 whole entry): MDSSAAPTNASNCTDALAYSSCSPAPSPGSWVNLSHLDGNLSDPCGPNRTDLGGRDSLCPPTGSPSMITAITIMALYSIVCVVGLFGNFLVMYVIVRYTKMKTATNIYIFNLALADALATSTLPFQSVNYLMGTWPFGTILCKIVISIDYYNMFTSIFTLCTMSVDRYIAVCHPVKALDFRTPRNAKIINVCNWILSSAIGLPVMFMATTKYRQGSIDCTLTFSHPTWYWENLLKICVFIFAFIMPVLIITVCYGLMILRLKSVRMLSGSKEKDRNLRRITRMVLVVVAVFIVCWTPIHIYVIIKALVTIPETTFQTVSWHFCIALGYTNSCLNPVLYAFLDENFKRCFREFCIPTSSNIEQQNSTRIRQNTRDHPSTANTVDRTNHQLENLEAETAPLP
Assay notes: Affinity for the human μ opiate receptor ([3H]-naloxone displacement, CHO-K1 receptor membrane preparation, SPA)
Assay type: binding
Experimental parameters: 1.5 h, Table 3, to be read in the same way as Table 1; test concentration 1 μM; read-out: μ
inhibition at 1 µM listing for selected molecules.
Field: value (include unit after the number)

Example results:
- Molecule: "COc1cc(C)c(S(=O)(=O)N2CCCCC2COCC(=O)N2CCC(C(c3cccc(F)c3)N3CCN(C)CC3)CC2)c(C)c1 (stereo not shown)"
  Quantity: "inhibition at 1 µM"
  Reported measurement: "7%"
- Molecule: "CN1CCN(C(c2ccccc2)C2CCC(NC(=O)COCCN(C)S(=O)(=O)c3c(Cl)cccc3Cl)CC2)CC1 (stereo not shown)"
  Quantity: "inhibition at 1 µM"
  Reported measurement: "29%"
- Molecule: "O=C(COC1CCN(S(=O)(=O)c2c(Cl)cc(Cl)cc2Cl)C1)NCC1CCC(C(CCc2ccccc2)N2CCCC2)CC1 (stereo not shown)"
  Quantity: "inhibition at 1 µM"
  Reported measurement: "35%"

Record CN1CCN(C(c2ccccc2)C2CCC(NC(=O)COCC3CCCN3S(=O)(=O)c3c(Cl)cc(Cl)cc3Cl)CC2)CC1 (stereo not shown) , field inhibition at 1 µM: 61%

Record COc1cc(C)c(S(=O)(=O)N2CCCC(COCC(=O)NC3CCC(C(c4ccccc4)N4CCN(C)CC4)CC3)C2)c(C)c1 (stereo not shown) , field inhibition at 1 µM: 19%

Record CN1CCN(C(c2ccccc2)C2CCN(C(=O)COCC3CCc4ccccc4N3S(=O)(=O)c3ccc(Cl)c(Cl)c3)CC2)CC1 (stereo not shown) , field inhibition at 1 µM: 19%
